Provide the reported EC50 of each item.
Tested on: A2780 ovarian cancer cells
Test: Cellular proliferation in A2780 cells, Cell Titer Glo (Biological Method 4)
Type: cell-based
Conditions: Homo sapiens; ovarian cancer cell line A2780

// query Quick one: EC50 for "CN(C)c1cc(-c2cnc(N)nc2)nc(N2CCOCC2)n1" ?
// result < 10 µM

// query Quick one: EC50 for "COc1ccc2cc(Nc3cc(-c4cnc(N)nc4)nc(N4CCOCC4)n3)cnc2c1" ?
// result < 1 µM

// query Quick one: EC50 for "CC(=O)c1cccc(Nc2cc(-c3ccc(N)nc3)nc(N3CCOCC3)n2)c1" ?
// result < 10 µM

// query Quick one: EC50 for "CN1CCC(Nc2ccc(Nc3cc(-c4ccc(N)nc4)nc(N4CCOCC4)n3)cn2)CC1" ?
// result < 10 µM

// query Quick one: EC50 for "CC(C)OC(=O)N1CCC(Oc2cc(-c3cnc(N)cc3C(F)(F)F)nc(N3CCOCC3)n2)CC1" ?
// result < 10 µM

// query Quick one: EC50 for "N#Cc1cc(N)ncc1-c1cc(Nc2cnc3ccccc3c2)nc(N2CCOCC2)n1" ?
// result < 1 µM

// query Quick one: EC50 for "Nc1ncc(-c2cc(Nc3ccc4[nH]cnc4c3)nc(N3CCOCC3)n2)cn1" ?
// result < 10 µM

// query Quick one: EC50 for "Nc1ncc(-c2cc(O[C@H]3CCOC3)nc(N3CCOCC3)n2)c(N)n1" ?
// result < 10 µM

// query Quick one: EC50 for "N#Cc1cc(-c2cnc(N)nc2C(F)(F)F)nc(N2CCOCC2)n1" ?
// result < 10 µM

// query Quick one: EC50 for "CS(=O)(=O)c1ccc(Nc2cc(-c3ccc(N)nc3)nc(N3CCOCC3)n2)cc1" ?
// result < 10 µM

// query Quick one: EC50 for "CC(=O)c1ccccc1Nc1cc(-c2ccc(N)nc2)nc(N2CCOCC2)n1" ?
// result < 10 µM

// query Quick one: EC50 for "Nc1ncc(-c2cc(OC3CCOCC3)nc(N3CCOCC3)n2)c(=O)[nH]1" ?
// result < 1 µM

// query Quick one: EC50 for "Nc1cc(C(F)(F)F)c(-c2cc(OC3CCN(C(=O)c4ccccc4)CC3)nc(N3CCOCC3)n2)cn1" ?
// result < 10 µM

// query Quick one: EC50 for "Nc1ncc(-c2cc(Nc3cnc4ccccc4c3)nc(N3CCOCC3)n2)c(C(F)(F)F)n1" ?
// result < 1 µM

// query Quick one: EC50 for "Nc1ncc(-c2cc(Nc3ccncc3C(F)(F)F)nc(N3CCOCC3)n2)c(C(F)(F)F)n1" ?
// result < 1 µM

// query Quick one: EC50 for "Cc1cc(Nc2cc(-c3cnc(N)[nH]c3=O)nc(N3CCOCC3)n2)ccn1" ?
// result < 10 µM

// query Quick one: EC50 for "COc1ccc(Nc2cc(-c3cnc(N)nc3C)nc(N3CCOCC3)n2)cn1" ?
// result < 10 µM

---

Tested on: A2780 ovarian cancer cells
Assay: Cellular proliferation in A2780 cells, Cell Titer Glo (Biological Method 4)
Assay type: cell-based
Details: Homo sapiens; ovarian cancer cell line A2780
Provide the reported EC50 of each item.

// query Quick one: EC50 for NC(=O)c1cccc(Nc2cc(-c3ccc(N)nc3)nc(N3CCOCC3)n2)c1 [Compound 166] ?
// result < 10 µM

// query Quick one: EC50 for CC(C)N1CCC(Oc2ccc(Nc3cc(-c4cnc(N)cc4C(F)(F)F)nc(N4CCOCC4)n3)cn2)CC1 [Compound 11] ?
// result < 1 µM

// query Quick one: EC50 for Nc1cc(C(F)(F)F)c(-c2cc(-c3nccs3)nc(N3CCOCC3)n2)cn1 [Compound 138] ?
// result < 10 µM

// query Quick one: EC50 for Nc1ncc(-c2cc(Nc3ccc(F)cc3)nc(N3CCOCC3)n2)cn1 [Compound 123] ?
// result < 10 µM

// query Quick one: EC50 for COc1cncc(-c2cc(-c3cnc(N)nc3)nc(N3CCOCC3)n2)c1 [Compound 57] ?
// result < 1 µM

// query Quick one: EC50 for Nc1ccc(-c2cc(Nc3ccc(NCCN4CCCC4)nc3)nc(N3CCOCC3)n2)cn1 [Compound 497] ?
// result < 10 µM

// query Quick one: EC50 for CC(C)C(=O)N1CCC(Oc2cc(-c3cnc(N)[nH]c3=O)nc(N3CCOCC3)n2)CC1 [Compound 49] ?
// result < 1 µM

// query Quick one: EC50 for Nc1ncc(-c2cc(OC3CCN(C(=O)c4ccccc4)CC3)nc(N3CCOCC3)n2)c(C(F)(F)F)n1 [Compound 124] ?
// result < 1 µM

// query Quick one: EC50 for CN1CCC(Oc2cc(-c3cnc(N)nc3)nc(N3CCOCC3)n2)CC1 [Compound 514] ?
// result < 10 µM

// query Quick one: EC50 for Cc1nc(N)ncc1-c1ccnc(N2CCOCC2)n1 [Compound 478] ?
// result < 25 µM

// query Quick one: EC50 for Nc1ncc(-c2cc(Nc3cnc4ccccc4c3)nc(N3CCOCC3)n2)c(=O)[nH]1 [Compound 470] ?
// result < 10 µM

// query Quick one: EC50 for COc1ccc2ncc(Nc3cc(-c4cnc(N)nc4C)nc(N4CCOCC4)n3)cc2c1 [Compound 154] ?
// result < 1 µM

// query Quick one: EC50 for Cc1nc(N)ncc1-c1nc(N2CCOCC2)nc(Cl)c1C [Compound 468] ?
// result < 25 µM

// query Quick one: EC50 for CC(C)N1CCN(c2ccc(Nc3cc(-c4cnc(N)cc4C(F)(F)F)nc(N4CCOCC4)n3)cn2)CC1 [Compound 488] ?
// result < 10 µM

// query Quick one: EC50 for Nc1ncc(-c2cc(Nc3cnc4ccccc4c3)nc(N3CCOCC3)n2)c(N)n1 [Compound 147] ?
// result < 1 µM

// query Quick one: EC50 for CC(C)(C)OC(=O)CNc1ccc(Nc2cc(-c3cnc(N)cc3C(F)(F)F)nc(N3CCOCC3)n2)cn1 [Compound 491] ?
// result < 25 µM

// query Quick one: EC50 for CC(C)C(=O)N1CCC(Oc2cc(-c3cnc(N)nc3N)nc(N3CCOCC3)n2)CC1 [Compound 134] ?
// result < 1 µM

Taken from patent US8217035B2.
